- STUDY SYSTEM: T1, cynomolgus monkey BCMA (cynomolgus monkey, UniProt A0A2K5UD97 1-53)
- T1 construct: Soluble analyte in SPR; construct not described; also called cyBCMA; Cyno BCMA
- T1 sequence (A0A2K5UD97 entry or part of it): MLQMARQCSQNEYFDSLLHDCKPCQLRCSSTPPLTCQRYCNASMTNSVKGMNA
- ASSAY REMARKS: SPR, IgG immobilised, 25 C
Recorded measurements of koff, one per entry
Quick note: give the figure in s⁻¹, leave out the unit.

In: Look up and report measured koff for this entry: L1.LGF/L3.KW/H3.AP (antibody, V domains shown, IgG) VH: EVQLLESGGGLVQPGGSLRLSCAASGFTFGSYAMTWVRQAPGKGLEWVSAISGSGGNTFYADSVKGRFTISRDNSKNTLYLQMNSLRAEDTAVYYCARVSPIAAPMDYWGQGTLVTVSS VL: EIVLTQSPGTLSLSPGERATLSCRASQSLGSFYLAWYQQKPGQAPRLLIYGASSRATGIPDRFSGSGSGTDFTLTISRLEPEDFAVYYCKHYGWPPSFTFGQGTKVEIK
Out: 0.0154

In: Look up and report measured koff for this entry: L3.NY/P6E01 (antibody, V domains shown, IgG) VH: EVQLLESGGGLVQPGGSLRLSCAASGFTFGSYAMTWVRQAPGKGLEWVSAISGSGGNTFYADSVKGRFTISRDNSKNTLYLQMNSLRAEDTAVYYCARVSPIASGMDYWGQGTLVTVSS VL: EIVLTQSPGTLSLSPGERATLSCRASQSVSSSYLAWYQQKPGQAPRLLIYGASSRATGIPDRFSGSGSGTDFTLTISRLEPEDFAVYYCQHYNYPPSFTFGQGTKVEIK
Out: 0.00287

In: Look up and report measured koff for this entry: L3.KW/P6E01 (antibody, V domains shown, IgG) VH: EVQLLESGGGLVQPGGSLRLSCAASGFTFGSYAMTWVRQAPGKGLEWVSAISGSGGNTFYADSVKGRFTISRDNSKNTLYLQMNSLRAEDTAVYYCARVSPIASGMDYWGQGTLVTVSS VL: EIVLTQSPGTLSLSPGERATLSCRASQSVSSSYLAWYQQKPGQAPRLLIYGASSRATGIPDRFSGSGSGTDFTLTISRLEPEDFAVYYCKHYGWPPSFTFGQGTKVEIK
Out: 0.00257

Others:
In: Look up and report measured koff for this entry: L1.LGF/L3.KW/P6E01 (antibody, V domains shown, IgG) VH: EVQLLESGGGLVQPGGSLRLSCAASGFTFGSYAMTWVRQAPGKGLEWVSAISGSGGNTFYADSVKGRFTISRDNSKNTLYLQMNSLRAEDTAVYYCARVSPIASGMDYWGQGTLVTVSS VL: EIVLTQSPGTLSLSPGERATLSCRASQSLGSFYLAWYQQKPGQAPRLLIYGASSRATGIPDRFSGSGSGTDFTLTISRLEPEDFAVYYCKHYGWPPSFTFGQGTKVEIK
Out: 0.0195

Value source: patent US20160297884A1
